# credit: paper PMC12951568

This listing pairs compounds with measured ΦF, fluorescence quantum yield.
- assay method text: Fluorescence quantum yield, comparative method
- Type: physicochemical
- settings: in DMF; ZnPc as reference
Answer field: number only, no words.

O=S(=O)([O-])c1ccc(Oc2cccc3c2C2=Cc4c5cccc(Oc6ccc(S(=O)(=O)[O-])c7cccnc67)c5c5[n]4[Zn][n]4c(c6cccc(Oc7ccc(S(=O)(=O)[O-])c8cccnc78)c6c4=CC3=N2)=CC2=NC(=C5)c3cccc(Oc4ccc(S(=O)(=O)[O-])c5cccnc45)c32)c2ncccc12.[Na+].[Na+].[Na+].[Na+] = 0.26
C[n+]1cccc(Oc2ccc3c(c2)C2=NC3=Nc3c4cc(Oc5ccc[n+](C)c5)ccc4c4[n]3[Zn][n]3c(c5ccc(Oc6ccc[n+](C)c6)cc5c3=NC3=NC(=N4)c4cc(Oc5ccc[n+](C)c5)ccc43)=N2)c1.[I-].[I-].[I-].[I-] = 0.25
C=Cc1c(C)c2cc3nc(cc4[nH]c(cc5nc(cc1[nH]2)C(C)=C5CCC(=O)O)c(CCC(=O)OC)c4C)[C@@]1(C)C3=CC=C(C(=O)OC)[C@H]1C(=O)OC [verteporfin, reference compound] = 0.18

Recorded ΦF, fluorescence quantum yield for C[n+]1cccc(Oc2ccc3c(c2)C2=NC3=Nc3c4cc(Oc5ccc[n+](C)c5)ccc4c4[n]3[Zn][n]3c(c5ccc(Oc6ccc[n+](C)c6)cc5c3=NC3=NC(=N4)c4cc(Oc5ccc[n+](C)c5)ccc43)=N2)c1.F[P-](F)(F)(F)(F)F.F[P-](F)(F)(F)(F)F.F[P-](F)(F)(F)(F)F.F[P-](F)(F)(F)(F)F , please?
0.28

How about this compound: Cc1cc(Cn2cc[n+](C)c2)c(Oc2c3c(c(C)c(C)[n+]2C)C2=NC3=Nc3c4ccccc4c4[n]3[Zn][n]3c(c5ccccc5c3=N2)=NC2=NC(=N4)c3ccccc32)c(Cn2cc[n+](C)c2)c1.[I-].[I-].[I-]
0.15

How about this compound: O=C([O-])c1cc(C(=O)[O-])cc(-c2cc3c(cc2-c2cc(C(=O)[O-])cc(C(=O)[O-])c2)C2=Nc4c5ccccc5c5[n]4[Zn][n]4c(c6ccccc6c4=NC3=N2)=NC2=NC(=N5)c3ccccc32)c1.[Na+].[Na+].[Na+].[Na+]
0.02

How about this compound: NCCc1ccc(Oc2cccc3c2C2=NC3=Nc3c4ccccc4c4[n]3[Zn][n]3c(c5ccccc5c3=N2)=NC2=NC(=N4)c3ccccc32)cc1 [C15Zn]
0.20

How about this compound: Cc1cc(Cn2cc[n+](C)c2)c(Oc2cc3c(cc2Oc2c(Cn4cc[n+](C)c4)cc(C)cc2Cn2cc[n+](C)c2)C2=Nc4c5ccccc5c5[n]4[Zn][n]4c(c6ccccc6c4=NC3=N2)=NC2=NC(=N5)c3ccccc32)c(Cn2cc[n+](C)c2)c1.[I-].[I-].[I-].[I-]
0.19
